Cited source: patent US11466044B2

Test system: cytosolic ribosome (human chimeric)
Type: biochemical
conditions-used: Table 3 (Example 3)
Where a name gives a salt, the structure may show the parent alone.
readout-label: Selectivity for Binding to the Bacterial Ribosome over the Cytosolic Ribosome

* CCNC1C(OC2C(N)CC(N)C(O)C2OC2OC(CO)C(OC3OC(CN)C(O)C(O)C3N)C2O)OC(CN)C(O)C1O (stereo not drawn) [Compound 172, 2′-N-Ethyl-neomycin acetate salt] | 3111
* NCC1OC(OC2C(N)CC(N)C(O)C2OC2OC(CO)C(OC3OC(CN)C(O)C(O)C3N)C2O)CC(O)C1O (stereo not drawn) [Compound 173, 2′-Deamino-neomycin acetate salt] | 3188
* NCC1OC(OC2C(CO)OC(OC3C(O)C(N)CC(N)C3OC3OC(CN)C(O)C(O)C3NC=O)C2O)C(N)C(O)C1O (stereo not drawn) [Compound 182, 2′-N-Formamido-neomycin] | 1093
* CCCNC1C(OC2C(N)CC(N)C(O)C2OC2OC(CO)C(OC3OC(CN)C(O)C(O)C3N)C2O)OC(CO)C(O)C1O (stereo not drawn) [Compound 128, 2′-N-Propyl-paromomycin acetate salt] | 425
* CCNC1C(OC2C(N)CC(N)C(O)C2OC2OC(CO)C(OC3OC(CN)C(O)C(O)C3N)C2O)OC(CO)C(O)C1O (stereo not drawn) [Compound 127] | 918
* CC(=O)NC1C(OC2C(N)CC(N)C(O)C2OC2OC(CO)C(OC3OC(CN)C(O)C(O)C3N)C2O)OC(CN)C(O)C1O (stereo not drawn) [Compound 183] | 28

====

Tested on: mitochondrial ribosome (human chimeric)
Type: biochemical
conditions-used: mitochondrial; Table 3 (Example 1); read-out: IC50 Mit
We begin with a simple list: items and their reported IC50.
readout-label: IC50

* NC[C@@H]1O[C@H](O[C@H]2[C@@H](O)[C@H](O[C@@H]3[C@@H](O)[C@H](N)C[C@H](N)[C@H]3O[C@H]3O[C@H](CO)[C@@H](O)C[C@H]3N)O[C@@H]2CO)[C@H](N)[C@@H](O)[C@@H]1O [Lividomycin B, lividomycin B, reference compound] | 109 µM
* NC[C@H]1O[C@H](O[C@H]2[C@H](O[C@@H]3O[C@H](CN)[C@@H](O)[C@H]3O)[C@@H](O)[C@H](N)C[C@@H]2N)[C@H](N)[C@@H](O)[C@@H]1O | 76 µM

====

Tested on: E coli wild type
method-notes: MIC by broth microdilution, wild type E coli
Type: cell-based
conditions-used: Escherichia coli, ATCC25922, strain AG212 E. coli (ATCC25922); read-out: MIC AG212 E. coli
Where a name gives a salt, the structure may show the parent alone.
Param label: returns Yes when MIC < 4 µg/mL, returns No otherwise, including exact equality.

* CCNC1C(OC2C(N)CC(N)C(O)C2OC2OC(CO)C(OC3OC(CN)C(O)C(O)C3N)C2O)OC(CN)C(O)C1O (stereo not drawn) [Compound 172, 2′-N-Ethyl-neomycin acetate salt] | Yes
* CC[C@@H]1C(CO)O[C@H](O[C@@H]2C(N)C[C@@H](N)C(O)[C@H]2O[C@@H]2O[C@H](CO)[C@H](O[C@H]3OC(CN)[C@@H](O)C(O)C3N)C2O)[C@@H](N)C1O (stereo partly drawn) | No
* CC1CC(N)C2O[C@H](O[C@@H]3C(N)C[C@@H](N)C(O)[C@H]3O[C@@H]3O[C@H](CO)[C@H](O[C@H]4O[C@@H](CN)[C@@H](O)C(O)C4N)C3O)C(N)[C@@H](O)[C@@H]2O1 (stereo partly drawn) | Yes
* CC1CC(O)C2O[C@H](O[C@@H]3C(N)C[C@@H](N)C(O)[C@H]3O[C@@H]3O[C@H](CO)[C@H](O[C@H]4O[C@@H](CN)[C@@H](O)C(O)C4N)C3O)C(N)[C@@H](O)[C@@H]2O1 (stereo partly drawn) | Yes
* NCC1OC(OC2C(CO)OC(OC3C(O)C(N)CC(N)C3OC3OC(CN)C(O)C(O)C3O)C2O)C(N)C(O)C1O (stereo not drawn) | Yes
* CCC[C@H]1C[C@H](N)[C@@H](O[C@@H]2C(N)C[C@@H](N)C(O)[C@H]2O[C@@H]2O[C@H](CNC=O)[C@H](O[C@H]3OC(CN)[C@@H](O)C(O)C3N)C2O)OC1CO (stereo partly drawn) | No
